Target Of Assay: neuraminidase (NA), from Sigma-Aldrich
Construct: gene nanH
Format: biochemical
Condition Parameters: read-out: HPLC-FLD
pIC50: −log10 of the molar value.
Parameter pIC50: see the listing below.
Metric Name: pIC50

• CC(C)=CCOc1c2ccoc2cc2oc(=O)ccc12 [compound 9, Isoimpemtorin] = 3.18
• COc1c2ccoc2cc2oc(=O)ccc12 [compound 13, Bergapten] = 2.55
• O=c1cc(-c2ccccc2)oc2cc(O)c(O)c(O)c12 [compound 8, Baicalein] = 3.96
• O=C(O)[C@H]1O[C@@H](Oc2cc3oc(-c4ccccc4)cc(=O)c3c(O)c2O)[C@H](O)[C@@H](O)[C@@H]1O [compound 7, Baicalin] = 3.30
• COc1ccc2ccc(=O)oc2c1CC=C(C)C [compound 14, Osthole] = 2.67
• O=c1ccc2cc3ccoc3cc2o1 [compound 10, Psoralen] = 3.00
• O=C(/C=C/c1ccc(O)c(O)c1)O[C@@H]1[C@H](O)C[C@@](O)(C(=O)O)C[C@H]1OC(=O)/C=C/c1ccc(O)c(O)c1 [compound 6, Isochlorogenic acid C] = 2.93
• O=c1ccc2cc3ccoc3c(O)c2o1 [compound 12, Xanthotol] = 2.98

---

Target Of Assay: neuraminidase (NA), from Sigma-Aldrich
Construct: gene nanH
Type: biochemical
Condition Parameters: read-out: HPLC-FLD
pIC50: −log10 of the molar value.
Metric Name: pIC50

- O=c1ccc2ccc3occc3c2o1: 2.59
